Give self-splicing fitness (ln) for every item shown.
METHOD: self-splicing fitness, log relative to wild type (ln ratio); higher = more splicing; Tetrahymena group I intron in knt gene, E. coli kanamycin selection, DiMSum; sequences stand for … in CUCUCU…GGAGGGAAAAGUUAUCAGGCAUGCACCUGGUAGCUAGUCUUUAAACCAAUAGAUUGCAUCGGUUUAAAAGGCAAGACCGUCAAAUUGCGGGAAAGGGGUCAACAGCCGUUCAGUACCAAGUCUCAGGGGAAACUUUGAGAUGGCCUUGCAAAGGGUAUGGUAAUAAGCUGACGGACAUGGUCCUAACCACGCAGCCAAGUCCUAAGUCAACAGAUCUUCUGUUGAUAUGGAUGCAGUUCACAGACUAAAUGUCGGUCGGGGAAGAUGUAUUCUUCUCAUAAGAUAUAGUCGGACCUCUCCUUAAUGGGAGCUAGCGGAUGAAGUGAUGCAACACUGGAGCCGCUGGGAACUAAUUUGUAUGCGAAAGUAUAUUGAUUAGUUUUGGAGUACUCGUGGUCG;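 further: selection with 25 µg/mL kanamycin versus none on LB agar overnight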
CONDITION_CONTEXT: 30 °C
Just the number, please, no unit after it.

# lookup: self-splicing fitness (ln) of AAGUAGCAAUAUUACGGUCU -0.291

# lookup: self-splicing fitness (ln) of GUUAAGCAAUAUUACGCAUG -1.11

# lookup: self-splicing fitness (ln) of UUAGAGCAAUAUUACGUUUG -2.04

# lookup: self-splicing fitness (ln) of UCUUAGCAAUAUUACGUCCG -1.41

# lookup: self-splicing fitness (ln) of UCCAAGCAAUAUUACGUCGG -1.11

# lookup: self-splicing fitness (ln) of AGCAAGCAAUAUUACGGAGG -4.63

# lookup: self-splicing fitness (ln) of AAACAGCAAUAUUACGGCAU -0.814

# lookup: self-splicing fitness (ln) of CUCAAGCAAUAUUACGACCG -1.26

# lookup: self-splicing fitness (ln) of CAUUAGCAAUAUUACGAUGG -0.461

# lookup: self-splicing fitness (ln) of UGUAAGCAAUAUUACGUUUG -1.24

# lookup: self-splicing fitness (ln) of CUAGAGCAAUAUUACGGUCA -3.55

# lookup: self-splicing fitness (ln) of UGUCAGCAAUAUUACGGCUA 0.131

# lookup: self-splicing fitness (ln) of GGGUAGCAAUAUUACGACCG -1.03

# lookup: self-splicing fitness (ln) of GGGGAGCAAUAUUACGCGAG -1.54

# lookup: self-splicing fitness (ln) of AGGAAGCAAUAUUACGUAGU -2.73

# lookup: self-splicing fitness (ln) of UCUCAGCAAUAUUACGAUUG -3.43

# lookup: self-splicing fitness (ln) of CCACAGCAAUAUUACGCGUC -3.13

# lookup: self-splicing fitness (ln) of UAGCAGCAAUAUUACGGUCC -3.66

# lookup: self-splicing fitness (ln) of CUCUAGCAAUAUUACGAUGA -1.93

# lookup: self-splicing fitness (ln) of UGAGAGCAAUAUUACGCACU -3.11

# lookup: self-splicing fitness (ln) of AUCCAGCAAUAUUACGCGGG -3.37

# lookup: self-splicing fitness (ln) of UUUUAGCAAUAUUACGUUCG -0.683

# lookup: self-splicing fitness (ln) of CACGAGCAAUAUUACGCCCA -1.81

# lookup: self-splicing fitness (ln) of CUUCAGCAAUAUUACGGAAU -1.46

# lookup: self-splicing fitness (ln) of CCCAAGCAAUAUUACGAUUA -2.97

# lookup: self-splicing fitness (ln) of AAAUAGCAAUAUUACGUCAU -2.45

# lookup: self-splicing fitness (ln) of GGAUAGCAAUAUUACGGAGU -2.95

# lookup: self-splicing fitness (ln) of GCCAAGCAAUAUUACGCCCA -1.18

# lookup: self-splicing fitness (ln) of UCCCAGCAAUAUUACGCUCA -1.48

# lookup: self-splicing fitness (ln) of GAAUAGCAAUAUUACGGAGA -3.11

# lookup: self-splicing fitness (ln) of UUAAAGCAAUAUUACGCGAA -0.169

# lookup: self-splicing fitness (ln) of CAUUAGCAAUAUUACGGUUU -3.82

# lookup: self-splicing fitness (ln) of UGCGAGCAAUAUUACGACUU -2.13

# lookup: self-splicing fitness (ln) of GCGCAGCAAUAUUACGUUGG -1.81

# lookup: self-splicing fitness (ln) of GGCCAGCAAUAUUACGGGAG -2.14

# lookup: self-splicing fitness (ln) of AUUAAGCAAUAUUACGUGGG -3.45

# lookup: self-splicing fitness (ln) of AAGCAGCAAUAUUACGAGAU -3.14

# lookup: self-splicing fitness (ln) of CGGAAGCAAUAUUACGUACU -0.218

# lookup: self-splicing fitness (ln) of UCUAAGCAAUAUUACGCGAU -4.31

# lookup: self-splicing fitness (ln) of GUCCAGCAAUAUUACGCUCA -0.307

# lookup: self-splicing fitness (ln) of GAAUAGCAAUAUUACGGAGU -2.02

# lookup: self-splicing fitness (ln) of CAUCAGCAAUAUUACGAAUA -1.48

# lookup: self-splicing fitness (ln) of CUCCAGCAAUAUUACGUAGG -2.92

# lookup: self-splicing fitness (ln) of ACGCAGCAAUAUUACGGACA -1.29

# lookup: self-splicing fitness (ln) of CCCUAGCAAUAUUACGUCCU -4.12

# lookup: self-splicing fitness (ln) of GCGGAGCAAUAUUACGUUAU -3.7

# lookup: self-splicing fitness (ln) of CUCUAGCAAUAUUACGUCAU -2.83

# lookup: self-splicing fitness (ln) of GUACAGCAAUAUUACGGAUG -2.79

# lookup: self-splicing fitness (ln) of GGCUAGCAAUAUUACGCUUU -0.428

# lookup: self-splicing fitness (ln) of AACAAGCAAUAUUACGAUUG -4.48

# lookup: self-splicing fitness (ln) of ACUCAGCAAUAUUACGGUUC -2.68

# lookup: self-splicing fitness (ln) of CGAUAGCAAUAUUACGUGCG -2.23

# lookup: self-splicing fitness (ln) of AUACAGCAAUAUUACGUUAU -3.44

# lookup: self-splicing fitness (ln) of ACCUAGCAAUAUUACGCGGA -1.04

# lookup: self-splicing fitness (ln) of GGACAGCAAUAUUACGUAGU -1.61

# lookup: self-splicing fitness (ln) of UGCAAGCAAUAUUACGCCGA -1.38

# lookup: self-splicing fitness (ln) of AUCAAGCAAUAUUACGCUUU -3.57

# lookup: self-splicing fitness (ln) of UGUGAGCAAUAUUACGACCA -1.27

# lookup: self-splicing fitness (ln) of CUGUAGCAAUAUUACGGUAU -2.41

# lookup: self-splicing fitness (ln) of UUUUAGCAAUAUUACGGUAU -2.87

# lookup: self-splicing fitness (ln) of AUAAAGCAAUAUUACGUUUC -3.83

# lookup: self-splicing fitness (ln) of CGUCAGCAAUAUUACGGUCG -2.52

# lookup: self-splicing fitness (ln) of CUAAAGCAAUAUUACGGUCC -4.33

# lookup: self-splicing fitness (ln) of UGCUAGCAAUAUUACGUUCU -0.686

# lookup: self-splicing fitness (ln) of GCCAAGCAAUAUUACGUUGU -1.79

# lookup: self-splicing fitness (ln) of GACGAGCAAUAUUACGAUAU -3.83

# lookup: self-splicing fitness (ln) of AACUAGCAAUAUUACGAUUG -2.97
